# measured_target: EGFR L858R/L792H (Homo sapiens, UniProt P00533, L792H/L858R)
# Construct: expressed in transfected cells; host or cells: Ba/F3
# assay_summary: Ba/F3 drug screening, Cell Titer Glo, IC50 Mut/WT
# Assay type: cell-based
# test_parameters: PACC; L858R/L792H; Ba/F3; 72 hours
property_name: ratio of IC50 for cells with mutant EGFR to IC50 for cells with wildtype EGFR (Mut/WT)

COc1cc2ncnc(Nc3ccc(F)c(Cl)c3)c2cc1NC(=O)/C=C/CN1CCCCC1 [Dacomitinib]	0.002838

A. CN(C)C/C=C/C(=O)Nc1cc2c(Nc3ccc(Cl)c(Br)c3)ncnc2cn1 [Tarlox-TKI]
B. COc1cc2ncnc(Nc3cccc(Cl)c3F)c2cc1OC(=O)N1CCN(C)C[C@H]1C [AZD3759]
Given A and B , report the one with the higher recorded ratio of IC50 for cells with mutant EGFR to IC50 for cells with wildtype EGFR (Mut/WT). Lab log: write the label of the selected item as the result. A
